experimentalDetails: protein stability index of a GFP-peptide fusion (GPS, HEK-293T) (PSI 1-6); higher = more stable;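 note: 24-mer peptide tiles fused after GFP, lentivirally expressed, FACS-sorted into six equal bins by GFP/DsRed ratio, decoded by Illumina sequencing, PSI is the read-weighted mean bin number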
conditionSummary: treatment: MLN4924 1 uM, 8 h; c terminus: a fixed tail appended
Readings of protein stability index for the listed sequences

Reference set, count: 5
> print(dat)
                          itemsequence  recordedvalue
1    LLHGLNLLWRKQLFCDVTLTAQGQ [KLHL14]           2.88
2      DASEAHESSSRGEAGAPGEEDIQG [CHGB]           5.56
3  FNIVYIYTSELYPTVIRNVGLGTC [SLC22A15]           3.07
4     GPFDLMSRRVIAANNRILAERIAK [IMPA1]           3.46
5      SKVVVPPLPGKAFLRQLPFRGDDG [SNX3]           3.56

Provide only the value of recorded protein stability index for KTVSLQIFSVLNSDDAAAPALETQ [SMOC2]
3.56

Identify measured protein stability index associated with EEHSLEQVQSMVVGEVLKDIETAC [SPDEF]
4.85

Note protein stability index for the sequence shown: GNDTSPSEGTNLNAPNSLGVSALC [HNF4A]
4.76
